Measured melting point values are reported for all entries that follow.

| compound | value-reported |
| --- | --- |
| N#Cc1ccc(NC2CC2)cc1 | 79 to 81 °C |
| c1ccc(CNc2ccc(N3CCOCC3)cc2)nc1 | 132 to 134 °C |
| O=C(O)c1ccc(-c2ccco2)o1 | 147 to 149 °C |
| CC(=O)Nc1cccc(C#N)c1 | 133 to 135 °C |
| CCCCS(=O)(=O)NCC(=O)O | 65 to 67 °C |
| Cc1ccc(-c2nn(-c3ccccc3)cc2C(=O)O)cc1C | 215 to 217 °C |
| O=[N+]([O-])c1ccc2nc(Cl)ccc2c1 | 224 to 226 °C |
| NCC(=O)Nc1ccccc1-n1cncn1 | 118 to 120 °C |
| CC(C)COc1ccc(-c2nn(-c3ccccc3)cc2C=O)cc1 | 100 to 102 °C |
| COc1cc(N)ccc1S(=O)(=O)N1CCCC1 | 145 to 147 °C |

Look up melting point for this molecule: `CS(=O)(=O)c1ccc(C(=O)O)o1`
173 to 175 °C

Look up melting point for this molecule: `c1ccc(Cc2nnc3n2CCNC3)cc1`
111 to 113 °C

Look up melting point for this molecule: `O=C(CCl)Nc1cccc(C(=O)O)c1`
220 to 222 °C

* * *

measure-name: melting point

# annotated cases, reported melting point shown
| compound | value-reported |
| --- | --- |
| O=C(O)CCc1c(-c2ccc(F)cc2)[nH]c2ccc(F)cc12 | 131 to 135 °C |
| CCOC(=O)c1cc(Br)c(OC)c(S(=O)(=O)Cl)c1 | 62 to 64 °C |
| CC(=O)c1cc2c(cc1[N+](=O)[O-])OCO2 | 121 to 123 °C |
| CS(=O)(=O)c1ccc(NC(N)=O)cc1 | 224 to 226 °C |
| O=C(O)CCNS(=O)(=O)c1cccnc1Cl | 174 to 176 °C |
| Brc1ccc(-c2ncno2)cc1 | 109 to 111 °C |
| COc1ccc(C(C)=O)cc1Br | 82 to 84 °C |
| COC(=O)Cn1cnc2c(N)ncnc21 | 228 to 230 °C |
| Nc1ccc(Cl)cc1C(=O)c1ccc[nH]1 | 149 to 151 °C |
| CS(=O)(=O)CC(O)c1ccccc1 (stereo not drawn) | 103 to 105 °C |

Look up melting point for this compound: `CN(c1ccccc1)S(=O)(=O)c1cc(C(=O)O)ccc1Br`
204 to 206 °C

Look up melting point for this compound: O=C(O)c1ccccc1SC1CCS(=O)(=O)C1 (stereo not drawn)
165 to 167 °C

Look up melting point for this compound: `Clc1noc(-c2cccs2)n1`
37 to 39 °C

* * *

measure-name: melting point

# annotated cases, reported melting point shown
| molecule | value-reported |
| --- | --- |
| O=C(O)c1sc2cc(Br)ccc2c1Cl | 286 to 288 °C |
| COCc1cccc(C(=O)O)c1 | 64 to 66 °C |
| CCOC(=O)c1sc(NCCCC(=O)O)nc1-c1ccccc1 | 120 to 122 °C |
| NC(=NO)c1ccc(Oc2ccc(F)cc2)nc1 | 194 to 196 °C |
| CCS(=O)(=O)Nc1ccc(N)cc1OC | 129 to 131 °C |
| Cc1nc(S)nc(C)c1CCC(=O)O | 154 to 156 °C |
| Nc1ccc(C(=O)Nc2ccccc2)cc1 | 134 to 136 °C |
| CN1C(=O)c2ccc(NC(=O)CCl)cc2C1=O | 203 to 205 °C |
| O=S(=O)(O)c1nc2ccccc2[nH]1 | 116 to 119 °C |
| NC(=O)c1cccc(C=O)c1 | 108 to 110 °C |

Look up melting point for this molecule: `Fc1ccccc1Nc1nnc(S)s1`
170 to 172 °C

Look up melting point for this molecule: `O=C(O)C1CCN(c2ccc(C(F)(F)F)cc2[N+](=O)[O-])CC1`
141 to 143 °C

Look up melting point for this molecule: O=C(O)C(Nc1ccccc1)c1ccccc1F (stereo not drawn)
115 to 117 °C

Look up melting point for this molecule: `Cc1sc2[nH]c(=O)oc(=O)c2c1C`
199 to 201 °C

Look up melting point for this molecule: `O=C(O)CCc1ccc2c(c1)OCCO2`
64 to 66 °C

Look up melting point for this molecule: CC(N)c1ccc(NC(N)=O)cc1 (stereo not drawn)
132 to 134 °C

Look up melting point for this molecule: O=C(O)C1CC(=O)N(c2ccc(F)cc2)C1 (stereo not drawn)
121 to 123 °C

Look up melting point for this molecule: O=[N+]([O-])c1ccc(NC2CCOc3ccccc32)cc1 (stereo not drawn)
124 to 126 °C

Look up melting point for this molecule: `Cc1nc2cc(Cl)ccc2c(=O)n1N`
202 to 204 °C

Look up melting point for this molecule: `COC(=O)CCSc1ccc([N+](=O)[O-])cc1C(=O)O`
165 to 167 °C

Look up melting point for this molecule: `Cn1cc(S(N)(=O)=O)cn1`
121 to 123 °C

Look up melting point for this molecule: `Nc1ccc(NC(=O)c2ccccc2)nc1`
139 to 141 °C

Look up melting point for this molecule: `N#Cc1ccc2c(c1)CCO2`
64 to 66 °C

Look up melting point for this molecule: `COC(=O)CNC(=O)Cc1ccc(N)cc1`
93 to 95 °C

Look up melting point for this molecule: `N#CCOc1ccc(CBr)cc1`
74 to 76 °C
